Target: M-phase phosphoprotein 8 (Homo sapiens)
Experiment: qHTS Validation Assay for Inhibitors for MPP8 Chromodomain Interactions with Methylated Histone Tails (AID 488949); also: nearly all actives have a fitted effect of over 55% in size
Conditions: AlphaScreen MPP8 binding to H3K9me3 peptide; series mostly up to 114 µM
Inconclusive results are not listed. Activity calls are given as the source filed them. Calls follow the shape of the dose curve; as a rule, active = well fitted inhibition curve with a large enough effect; inconclusive = small, poorly fitted or top-dose-only effect; inactive = no such curve, though single readings can be large or run the other way.
Possible outcomes: active, inactive

compound	answer-label
CN1C(=O)CCS(=O)(=O)C1c1ccc(Cl)cc1 (centres undefined)	inactive
Cc1ncsc1CCCl	inactive
CC(NC(C)(C)C)C(=O)c1cccc(Cl)c1 (centres undefined)	inactive
O=c1[nH]oc2c1CCNC2	inactive
CC(C)c1cccc(C(C)C)c1O	inactive
CC(C)N(CCC(C(N)=O)(c1ccccc1)c1ccccn1)C(C)C (centres undefined)	inactive
CN=C(NC#N)NCCSCc1nc[nH]c1C	inactive
Cc1nnc(SCC2=C(C(=O)O)N3C(=O)[C@@H](NC(=O)Cn4cnnn4)[C@H]3SC2)s1	inactive
C[C@]12CCC(=O)C=C1CC[C@@H]1[C@@H]2CC[C@]2(C)C(=O)CC[C@@H]12	inactive
C=C(C)[C@H]1CN[C@H](C(=O)O)[C@H]1CC(=O)O	inactive
CC[N+](CC)(CC)CCOc1cccc(OCC[N+](CC)(CC)CC)c1OCC[N+](CC)(CC)CC	active
O=P1(N(CCCl)CCCl)NCCCO1 (centres undefined)	inactive
O=C(O)CCCc1ccc(N(CCCl)CCCl)cc1	inactive
O=C(CCCN1CCC2(CC1)C(=O)NCN2c1ccccc1)c1ccc(F)cc1	inactive

###

Assay: Cellular Toxicity (caspase-3) Renal Proximal Tubule (AID 667);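 also: cells exposed to compound for 16 hours at 37 °C before detection; 0% = DMSO basal and 100% = 10 µM staurosporine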
Conditions: renal proximal tubule cells; series mostly up to 91.7 µM
Active and inactive are the calls of the source. The call rests on the fitted dose curve; in most records, active means well fitted activation curve with a large enough effect; inconclusive means small, poorly fitted or top-dose-only effect, or effect the other way; inactive means flat fitted curve, though single readings scatter.

compound	outcome
COc1cc(OC)c(OC)cc1C=O	inactive
CC(C)NC(C)C	inactive
O=C(O)CCCc1ccc(N(CCCl)CCCl)cc1	inactive
CCCC(C)(COC(N)=O)COC(N)=O	inactive
CCC(C)(C)c1ccc(O)cc1	inactive
Nc1ccccc1	inactive
COP(=S)(OC)Oc1ccc(SC)c(C)c1	inactive
CN1C[C@H](C(=O)N[C@]2(C)O[C@@]3(O)[C@@H]4CCCN4C(=O)[C@H](Cc4ccccc4)N3C2=O)C=C2c3cccc4[nH]cc(c34)C[C@H]21	inactive
Clc1ccc(C(c2ccc(Cl)cc2)C(Cl)(Cl)Cl)cc1	inactive
Oc1ccc(Cl)cc1	inactive
CCOC(=O)CC(SP(=S)(OC)OC)C(=O)OCC (configuration not stated)	inactive
NCCc1ccc(O)cc1	inactive

###

Assay: qHTS for Inhibitors of the Functional Ribonucleoprotein Complex (vRNP) of Lassa (LASV) Arenavirus: Viability assay - alamar blue signal for LASV Primary Screen (AID 1347083); also: % is scaled to controls: 0 for no effect and ±100 for the full control effect; nearly all actives have a fitted effect of over 80% in size
Details: cell viability, alamar blue fluorescence (LASV minigenome counter-screen); series mostly up to 57.5 µM
Records with an inconclusive call do not appear. Calls of active or inactive are those of the source. The call rests on the fitted dose curve; tested in HEK293 reporter line.
endpoint: activity change, negative = reduced viability

compound	result
CC[C@H]1OC(=O)[C@H](C)[C@@H](O[C@H]2C[C@@](C)(OC)[C@@H](O)[C@H](C)O2)[C@H](C)[C@@H](O[C@@H]2O[C@H](C)C[C@H](N(C)C)[C@@H]2O)[C@](C)(O)C[C@@H](C)CN(C)[C@H](C)[C@@H](O)[C@]1(C)O	inactive
Cc1nc(-c2ccc(Cl)cc2)oc1COC(C)(C)C(=O)O	inactive
O=C1[C@@H]2[C@H]3CC[C@H](C3)[C@@H]2C(=O)N1CCCCN1CCN(c2ncccn2)CC1	inactive
N[C@@H](Cc1cc(I)c(Oc2ccc(O)c(I)c2)c(I)c1)C(=O)O	inactive
CN1[C@@H]2CC(OC(=O)[C@H](CO)c3ccccc3)C[C@H]1[C@@H]1O[C@@H]12 (stereo partly drawn)	inactive
CC(=O)c1ccc(OCC(=O)N2CCCCC2)cc1	inactive
C=CCN1C[C@H](C(=O)N(CCCN(C)C)C(=O)NCC)C[C@@H]2c3cccc4[nH]cc(c34)C[C@H]21	inactive
COc1cc2c(Nc3ccc(Br)cc3F)ncnc2cc1OCC1CCN(C)CC1	inactive

###

Target: Estrogen receptor (Homo sapiens)
Assay: qHTS assay for small molecule agonists of estrogen receptor alpha signaling (AID 588514); also: nearly all actives have a fitted effect of over 70% in size
Details: ER-alpha-UAS-bla HEK293, beta-lactamase ratio, 18 h; series mostly up to 76.8 µM
Records with an inconclusive call do not appear. The source made the active and inactive calls. Calls come from the whole dose curve.
Possible outcomes: Yes for active, No for inactive

compound	answer-label
O=C(O)CCCc1ccc(N(CCCl)CCCl)cc1	No
COC(=O)C(c1ccccc1)C1CCCCN1 (stereo not drawn)	No
CN1C[C@H](C(=O)N[C@]2(C)O[C@@]3(O)[C@@H]4CCCN4C(=O)[C@H](Cc4ccccc4)N3C2=O)C=C2c3cccc4[nH]cc(c34)C[C@H]21	No
CCOC(=O)CC(SP(=S)(OC)OC)C(=O)OCC (stereo not drawn)	No
Nc1ccc([As](=O)(O)O)cc1	Yes
O=P1(N(CCCl)CCCl)NCCCO1 (stereo not drawn)	No
CC1(C)C(C=C(Cl)Cl)C1C(=O)OC(C#N)c1cccc(Oc2ccccc2)c1 (stereo not drawn)	No
C[C@]12CCC(=O)C=C1CC[C@@H]1[C@@H]2CC[C@@]2(C)[C@H]1CC[C@]2(C)O	Yes

###

Biological target: Nucleoprotein (Lymphocytic choriomeningitis virus (strain Armstrong)) (UniProt P09992)
Sequence (P09992 whole entry, looked up): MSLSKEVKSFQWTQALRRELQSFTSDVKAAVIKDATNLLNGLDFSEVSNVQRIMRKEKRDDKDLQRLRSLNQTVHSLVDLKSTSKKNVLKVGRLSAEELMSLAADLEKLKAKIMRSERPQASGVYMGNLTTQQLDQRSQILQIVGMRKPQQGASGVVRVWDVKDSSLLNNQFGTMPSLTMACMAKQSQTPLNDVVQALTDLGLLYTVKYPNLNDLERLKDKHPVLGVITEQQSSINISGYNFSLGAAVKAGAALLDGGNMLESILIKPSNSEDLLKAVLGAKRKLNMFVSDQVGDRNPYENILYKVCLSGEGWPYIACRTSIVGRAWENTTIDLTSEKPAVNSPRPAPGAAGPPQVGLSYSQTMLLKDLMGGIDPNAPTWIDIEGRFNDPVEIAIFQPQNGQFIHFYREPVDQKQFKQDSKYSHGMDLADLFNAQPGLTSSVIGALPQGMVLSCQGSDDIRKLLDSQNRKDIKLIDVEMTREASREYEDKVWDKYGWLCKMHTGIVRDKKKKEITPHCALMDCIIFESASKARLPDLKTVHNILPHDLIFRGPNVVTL
Test: qHTS for Inhibitors of the Functional Ribonucleoprotein Complex (vRNP) of Lymphocytic Choriomeningitis Arenaviruses (LCMV): LCMV Primary Screen - GLuc reporter signal (AID 1347086); also: nearly all actives have a fitted effect of over 70% in size
Details: LCMV minigenome vRNP cell assay, Gaussia luciferase reporter; series mostly up to 57.5 µM
Results filed as inconclusive are left out. The source made the active and inactive calls. Calls follow the shape of the full dose curve.
Possible outcomes: label 1 = active, label 0 = inactive

compound	study-target	answer-label
C#CCC(Cc1cnc2nc(N)nc(N)c2n1)c1ccc(C(=O)N[C@@H](CCC(=O)O)C(=O)O)cc1 (stereo partly specified)	Nucleoprotein (Lymphocytic choriomeningitis virus (strain Armstrong)) (UniProt P09992)	label 1
COC(=O)c1ccccc1C(=O)c1ccc(OCCN2CCCCC2)cc1	Nucleoprotein (Lymphocytic choriomeningitis virus (strain Armstrong)) (UniProt P09992)	label 0
CC(Cc1ccccc1)NCCn1cnc2c1c(=O)n(C)c(=O)n2C (stereo unspecified)	Nucleoprotein (Lymphocytic choriomeningitis virus (strain Armstrong)) (UniProt P09992)	label 0
COc1cccc(OC)c1C(=O)N[C@@H]1C(=O)N2[C@@H]1SC(C)(C)[C@@H]2C(=O)O	Nucleoprotein (Lymphocytic choriomeningitis virus (strain Armstrong)) (UniProt P09992)	label 0
COC(=O)/C=C\C(=O)OC	Nucleoprotein (Lymphocytic choriomeningitis virus (strain Armstrong)) (UniProt P09992)	label 0
NC(=O)n1c(O)c(C(=O)c2cccs2)c2cc(Cl)ccc21	Nucleoprotein (Lymphocytic choriomeningitis virus (strain Armstrong)) (UniProt P09992)	label 0
CCN1CCN(C(=O)N[C@@H](C(=O)N[C@@H]2C(=O)N3[C@@H]2SC(C)(C)[C@H]3C(=O)O)c2ccccc2)C(=O)C1=O	Nucleoprotein (Lymphocytic choriomeningitis virus (strain Armstrong)) (UniProt P09992)	label 0
C[N+](C)(C)CCOC(N)=O	Nucleoprotein (Lymphocytic choriomeningitis virus (strain Armstrong)) (UniProt P09992)	label 0
O=C(NCC1CCCCN1)c1cc(OCC(F)(F)F)ccc1OCC(F)(F)F (stereo unspecified)	Nucleoprotein (Lymphocytic choriomeningitis virus (strain Armstrong)) (UniProt P09992)	label 0
CCN[C@@H](C)Cc1ccccc1	Nucleoprotein (Lymphocytic choriomeningitis virus (strain Armstrong)) (UniProt P09992)	label 0
CNCCCC12CCC(c3ccccc31)c1ccccc12	Nucleoprotein (Lymphocytic choriomeningitis virus (strain Armstrong)) (UniProt P09992)	label 0

###

Experiment: Cellular Toxicity (caspase-3) Hek293 (AID 664);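 also: cells exposed to compound for 16 h at 37 °C before readout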
Conditions: HEK293 caspase-3 activation, DMSO = 0%, 100 µM tamoxifen = 100%; series mostly up to 92.2 µM
Inconclusive results are not listed. Calls of active or inactive are those of the source. The call rests on the fitted dose curve; in most records, active means well fitted activation curve with a large enough effect; inconclusive means small, poorly fitted or top-dose-only effect; inactive means flat fitted curve, though single readings scatter.
endpoint: outcome

compound	result
Oc1ccc(Cl)cc1	inactive
CCC(C)(C)c1ccc(O)cc1	inactive
O=P1(N(CCCl)CCCl)NCCCO1 (stereo unspecified)	inactive
COC(=O)C(c1ccccc1)C1CCCCN1 (stereo unspecified)	inactive
O=C(O)CCCc1ccc(N(CCCl)CCCl)cc1	inactive
Nc1ccccc1C(=O)O	inactive
CC(C)NC(C)C	inactive
COc1cc(OC)c(OC)cc1C=O	inactive
CC(C)c1cccc(C(C)C)c1O	inactive
Nc1ccccc1	inactive
CCCC(C)(COC(N)=O)COC(N)=O	inactive

###

Conditions: Ebola virus entry cell assay, ratio channel
The source made the active and inactive calls.
Possible outcomes: active, inactive

compound	answer-label
C=CCC1([C@H](C)CCC)C(=O)NC(=O)NC1=O	inactive
CCOc1cc(CC(=O)N[C@@H](CC(C)C)c2ccccc2N2CCCCC2)ccc1C(=O)O	inactive
O=C(O)C[C@H](O)C[C@H](O)/C=C/c1c(C2CC2)nc2ccccc2c1-c1ccc(F)cc1	inactive
CC(C=CC1=C(C)CCCC1(C)C)=CC=CC(C)=CC(=O)O	inactive
CN[C@@H](C)Cc1ccccc1	inactive
Cc1nnc(C(C)C)n1C1C[C@H]2CC[C@@H](C1)N2CC[C@H](NC(=O)C1CCC(F)(F)CC1)c1ccccc1 (stereo not given in full)	inactive
C[N+]1(C)[C@@H]2CC(OC(=O)C(O)(c3cccs3)c3cccs3)C[C@H]1[C@@H]1O[C@@H]12 (stereo not given in full)	inactive
CC1(C)S[C@@H]2[C@H](NC(=O)[C@H](N)c3ccc(O)cc3)C(=O)N2[C@H]1C(=O)O	inactive
O=C(O)c1cc(N=Nc2ccc(O)c(C(=O)O)c2)ccc1O	inactive
CNCCC=C1c2ccccc2CCc2ccccc21	active

The reported measurements were obtained from PubChem BioAssay (NCATS).
